tested on: CP250; experiment: qHTS profiling for inhibitors of Plasmodium falciparum proliferation (AID 504749); also: nearly all actives have a fitted effect of over 60% in size; details: P. falciparum in erythrocytes, SYBR Green DNA, 72 h; series mostly up to 28.7 µM
Records with an inconclusive call do not appear. Calls of active or inactive are those of the source. Calls follow the shape of the dose curve; as a rule, active = well fitted inhibition curve with a large enough effect; inconclusive = small, poorly fitted or top-dose-only effect; inactive = flat fitted curve, though single readings scatter.
Outcome codes: active, inactive

>>> print(df.to_string())
                                    molecule  class_name
 0  CCCCCCCCCC(=O)O[C@H]1CC[C@H]2[C@@H]3CCC4=CC(=O)CC[C@]4(C)[C@H]3CC[C@]12C    inactive
 1               c1cc2c(c(NC3=NCCN3)c1)CCCC2    inactive
 2                 c1ccc2cc(CC3=NCCN3)ccc2c1    inactive
 3                                    CCON=O    inactive
 4  CCC(N)Cc1c[nH]c2ccccc12 (centres undefined)    inactive
 5  C/C(=C\c1csc(C)n1)[C@@H]1C[C@@H]2O[C@]2(C)CCC[C@H](C)[C@H](O)[C@@H](C)C(=O)C(C)(C)[C@@H](O)CC(=O)O1      active
 6  O=C(NC(=O)c1c(F)cccc1F)Nc1ccc(Cl)c(Oc2ncc(C(F)(F)F)cc2Cl)c1    inactive
 7  CC(=O)O[C@H]1CC[C@H]2[C@@H]3CCC4=CC(=O)CCC4=C3C=C[C@]12C    inactive
 8          C#CC(C)(O)CC (centres undefined)    inactive
 9               CCC1(CC)C(=O)NC(=O)N(C)C1=O    inactive
10             CN1CCCC(=C(c2cccs2)c2cccs2)C1    inactive
11  ClC1C(Cl)C(Cl)C(Cl)C(Cl)C1Cl (centres undefined)    inactive
12  COCC(C)N(C(=O)CCl)c1c(C)csc1C (centres undefined)    inactive
13  O=C1CC[C@@]2(O)C3Cc4ccc(O)c5c4C2(CCN3CC2CC2)[C@H]1O5 (some centres undefined)    inactive
14  CCCC(C)C1(CC)C(=O)NC(=O)NC1=O (centres undefined)    inactive
15              N#CC(C#N)=Cc1cc(O)c(O)c(O)c1      active
16            CCC1(c2ccccc2)C(=O)NC(=O)NC1=O    inactive
17             C=CCN(C1=NCCN1)c1c(Cl)cccc1Cl    inactive
18  C[N+]1(C)C2CCC1CC(OC(=O)c1c[nH]c3ccccc13)C2 (centres undefined)    inactive
19   O=C1CCCCC1CN1CCCCC1 (centres undefined)    inactive
20  CC[N+](C)(CC)CCOC(=O)C(O)(c1ccccc1)c1ccccc1    inactive
21  CCNC(C)Cc1cccc(C(F)(F)F)c1 (centres undefined)    inactive
22                       Oc1cc(Cl)c(Cl)cc1Cl    inactive
23  CC1CCC(C(C)C)C(OC(=O)c2ccccc2N)C1 (centres undefined)    inactive
